Just for reference, patent US5824665A is where these values come from.

# Test system: flank organ hair growth
# experiment-summary: Golden Syrian hamster assay (flank organ hair mass after topical treatment)
# Assay type: in vivo
# recorded-conditions: 10% concentration in vehicle, topical 10 μl once a day, thirteen applications; vs vehicle treated side
measure: % Inhibition (hair growth) (%)
Give the value, in units of %, as a plain number.

# compound, % Inhibition (hair growth), %
data = [
    ("N[C@@H]1C(O)O[C@H](CO)[C@@H](O)[C@@H]1O (stereo partly drawn) [Mannosamine]", 68),
    ("Cc1ccc(S(=O)(=O)N[C@@H](CCCCN)C(=O)CCl)cc1", 81),
    ("CC(=O)N[C@H]1[C@@H](O)[C@H](O)[C@@H](CO)O[C@H]1O [N-Acetyl-β-D-mannosamine]", 65),
    ("O=C(O)c1ccc2ccccc2n1 [Quinaldic Acid]", 69),
    ("O=C(O)C1(O)CC1 [1-Hydroxy-1-cyclopropanecarboxylic acid]", 22),
    ("O=C(O)[C@H](O)COP(=O)(O)O [D(-)3-Phosphoglyceric acid]", 21),
    ("N#CC(=Cc1ccc(O)cc1)C(=O)O [α-Cyano-4-hydroxycinnamic acid]", 49),
    ("CCCCCCCCCCCCCCCCC(C(=O)O)C(O)(CC(=O)O)C(=O)O (stereo not drawn) [Argaric acid]", 52),
]

// below: % Inhibition (hair growth) requested for another compound
Input line: Please look at this compound and report its % Inhibition (hair growth): O=CC[C@@H](O)[C@H](O)[C@H](O)CO [2-Deoxyglucose]
Output line: 38
